Biological target: human DHFR (Homo sapiens)
Construct: made in house; host or cells: E. coli M15
Sequence (P00374 1-187): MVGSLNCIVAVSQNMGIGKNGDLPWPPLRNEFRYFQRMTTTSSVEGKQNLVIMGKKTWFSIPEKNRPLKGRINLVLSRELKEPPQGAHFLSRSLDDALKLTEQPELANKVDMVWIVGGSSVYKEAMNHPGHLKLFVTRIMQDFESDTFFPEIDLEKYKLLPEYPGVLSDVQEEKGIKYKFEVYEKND
Test: Inhibition of human DHFR (I50-derived Ki);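 note: recombinant human DHFR expressed in E. coli and purified by methotrexate affinity chromatography, enzyme activity followed spectrophotometrically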
Format: biochemical
Settings: Human Ki (I50)(nM), human DHFR
Recorded metric: Ki (nM)
Value expressed in nM; do not type the unit.

Query :: I'm curious: which Ki was measured for CCOc1ccc(C2N=C(N)N=C(N)N2c2ccc(Cl)cc2)cc1 (centres unmarked) tested on human DHFR (Homo sapiens)?
Result :: 1730

Query :: I'm curious: which Ki was measured for NC1=NC(c2ccc(O)cc2)N(c2cccc(Cl)c2)C(N)=N1 (centres unmarked) [(Ib) R2=4-hydroxyphenyl] tested on human DHFR (Homo sapiens)?
Result :: 56

Query :: I'm curious: which Ki was measured for NC1=NC(c2ccc(OCc3ccccc3)cc2)N(c2ccc(Cl)cc2)C(N)=N1 (centres unmarked) tested on human DHFR (Homo sapiens)?
Result :: 1110

Query :: I'm curious: which Ki was measured for COc1ccc(C2N=C(N)N=C(N)N2c2ccc(Cl)cc2)cc1OC (centres unmarked) tested on human DHFR (Homo sapiens)?
Result :: 25700

Query :: I'm curious: which Ki was measured for NC1=NC(c2cccc(Oc3ccccc3)c2)N(c2ccc(OCc3ccccc3)cc2)C(N)=N1 (centres unmarked) tested on human DHFR (Homo sapiens)?
Result :: 10

Query :: I'm curious: which Ki was measured for NC1=NCN(c2ccc(OCc3ccccc3)cc2)C(N)=N1 tested on human DHFR (Homo sapiens)?
Result :: 44

Query :: I'm curious: which Ki was measured for CC(C)(C)c1ccc(Oc2cccc(C3N=C(N)N=C(N)N3c3ccc(Cl)cc3)c2)cc1 (centres unmarked) tested on human DHFR (Homo sapiens)?
Result :: 770

Query :: I'm curious: which Ki was measured for NC1=NC(c2cccc(Oc3ccccc3)c2)N(c2cccc(Cl)c2)C(N)=N1 (centres unmarked) tested on human DHFR (Homo sapiens)?
Result :: 2

---

Molecular target: A16V.S108T mutant (mut) of DHFR from Plasmodium falciparum (Plasmodium falciparum, UniProt A7UD81, A16V/S108T)
Construct: The Dihydrofolate Reductase Domain of Plasmodium falciparum Thymidylate Synthase-Dihydrofolate Reductase; made in house
Sequence (A7UD81 1-231 A16V/S108T): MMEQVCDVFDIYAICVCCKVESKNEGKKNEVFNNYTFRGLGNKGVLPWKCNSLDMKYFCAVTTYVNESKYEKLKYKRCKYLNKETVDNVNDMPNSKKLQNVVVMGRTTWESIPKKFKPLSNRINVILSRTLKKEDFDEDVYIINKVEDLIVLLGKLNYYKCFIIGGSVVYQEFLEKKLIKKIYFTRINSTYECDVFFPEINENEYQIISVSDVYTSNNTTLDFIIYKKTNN
Assay: biochemical
Recorded metric: log10 Ki (log10 of the value in nM)
Note: values are log10 of Ki expressed in nM.

Query :: If you can, please state the reported log10 Ki value of COc1ccc(Oc2cccc(C3N=C(N)N=C(N)N3c3ccc(Cl)cc3)c2)cc1 (stereo not shown) [(Ia) R2=3-(4-methoxyphenoxyl)phenyl] .
Result :: 0.82

Query :: If you can, please state the reported log10 Ki value of NC1=NC(c2ccc(OCc3cc(F)cc(F)c3)cc2)N(c2cccc(Cl)c2)C(N)=N1 (stereo not shown) [(Ib) R2=4-(3,5-difluorobenzyloxy)phenyl] .
Result :: 0.87

Query :: If you can, please state the reported log10 Ki value of NC1=NC(c2cccc(OCc3ccccc3)c2)N(c2cccc(Cl)c2)C(N)=N1 (stereo not shown) [(Ib) R2=3-benzyloxyphenyl] .
Result :: 0.51

Query :: If you can, please state the reported log10 Ki value of NC1=NC(c2ccc(F)cc2)N(c2ccc(Cl)cc2)C(N)=N1 (stereo not shown) [(Ia) R2=p-fluorophenyl] .
Result :: 2.11

Query :: If you can, please state the reported log10 Ki value of NC1=NC(c2cccc(Oc3cc(Cl)cc(Cl)c3)c2)N(c2cccc(Cl)c2)C(N)=N1 (stereo not shown) [(Ib) R2=3-(3,5-dichlorophenoxy)phenyl] .
Result :: 0.67

Query :: If you can, please state the reported log10 Ki value of NC1=NCN(c2cccc(Cc3ccccc3)c2)C(N)=N1 [R2=H, X=H, Y=Bn] .
Result :: 0.78

Query :: If you can, please state the reported log10 Ki value of N#Cc1ccc(C2N=C(N)N=C(N)N2c2ccc(Cl)cc2)cc1 (stereo not shown) [(Ia) R2=p-cyanophenyl] .
Result :: 2.31

---

Answer each item with its documented Selectivity.
Target: DHFR-TS from Trypanosoma cruzi (Trypanosoma cruzi, UniProt Q27793)
Construct: pET 11c with the insertion of the complete ORF of the gene tc-dhfrts; made in house; host or cells: E. coli BL21 (DE3)
Sequence (Q27793 whole entry): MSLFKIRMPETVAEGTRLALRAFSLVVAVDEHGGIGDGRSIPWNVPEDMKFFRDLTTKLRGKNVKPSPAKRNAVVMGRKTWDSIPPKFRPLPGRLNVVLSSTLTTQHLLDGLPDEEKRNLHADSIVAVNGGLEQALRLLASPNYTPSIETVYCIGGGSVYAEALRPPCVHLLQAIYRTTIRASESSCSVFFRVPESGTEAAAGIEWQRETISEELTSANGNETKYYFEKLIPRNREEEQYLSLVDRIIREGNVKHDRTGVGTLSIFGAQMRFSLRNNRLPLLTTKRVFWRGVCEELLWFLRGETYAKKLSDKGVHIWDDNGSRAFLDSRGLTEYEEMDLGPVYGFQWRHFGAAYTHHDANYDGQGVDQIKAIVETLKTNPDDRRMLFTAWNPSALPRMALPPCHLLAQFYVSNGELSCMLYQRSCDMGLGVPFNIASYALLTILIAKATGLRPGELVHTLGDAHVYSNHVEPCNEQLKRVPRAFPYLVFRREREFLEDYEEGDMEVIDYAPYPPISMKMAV
Assay: Inhibition of T. cruzi DHFR-TS (I50-derived Ki)
Format: biochemical
Settings: human Ki / T. cruzi Ki
API doc: respond with a numeric literal and nothing else, no unit.

Query :: If you can, please state the reported Selectivity value of NC1=NC(c2cccc(OCc3ccccc3)c2)N(c2cccc(Cl)c2)C(N)=N1 (stereo not drawn) .
Result :: 3.8

Query :: If you can, please state the reported Selectivity value of NC1=NCN(c2ccc(Cl)c(Cl)c2)C(N)=N1 .
Result :: 1.9

Query :: If you can, please state the reported Selectivity value of CC(C)c1ccc(C2N=C(N)N=C(N)N2c2ccc(Cl)cc2)cc1 (stereo not drawn) .
Result :: 167

Query :: If you can, please state the reported Selectivity value of CCOc1ccc(C2N=C(N)N=C(N)N2c2ccc(Cl)cc2)cc1 (stereo not drawn) .
Result :: 25

Query :: If you can, please state the reported Selectivity value of NC1=NC(c2cccc(OCc3ccccc3)c2)N(c2cccc(OCc3ccccc3)c2)C(N)=N1 (stereo not drawn) .
Result :: 16.6

Query :: If you can, please state the reported Selectivity value of NC1=NC(c2ccc(Cl)cc2)N(c2ccc(Cl)cc2)C(N)=N1 (stereo not drawn) .
Result :: 11

Query :: If you can, please state the reported Selectivity value of COc1ccc(C2N=C(N)N=C(N)N2c2ccc(Cl)cc2)cc1 (stereo not drawn) .
Result :: 212

Query :: If you can, please state the reported Selectivity value of NC1=NCN(c2ccc(Br)cc2)C(N)=N1 .
Result :: 4.8

Query :: If you can, please state the reported Selectivity value of CCCCOc1ccc(C2N=C(N)N=C(N)N2c2ccc(OCc3ccccc3)cc2)cc1 (stereo not drawn) .
Result :: 4.1

Query :: If you can, please state the reported Selectivity value of COc1cccc(C2N=C(N)N=C(N)N2c2cccc(Cl)c2)c1 (stereo not drawn) .
Result :: 5.3

Query :: If you can, please state the reported Selectivity value of NC1=NC(c2cccc(Oc3ccccc3)c2)N(c2cccc(Cl)c2)C(N)=N1 (stereo not drawn) .
Result :: 0.5

Query :: If you can, please state the reported Selectivity value of NC1=NCN(c2ccc(OCc3ccccc3)cc2)C(N)=N1 .
Result :: 4.4

---

Target: DHFR-TS from Trypanosoma cruzi (Trypanosoma cruzi)
Construct: pET 11c with the insertion of the complete ORF of the gene tc-dhfrts; made in house; host or cells: E. coli BL21 (DE3)
Assay: Inhibition of T. cruzi DHFR-TS (I50-derived Ki);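 note: enzymes were recombinant T. cruzi DHFR-TS and human DHFR, both expressed in E. coli and purified on a methotrexate affinity column, with dihydrofolate and NADPH as substrates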
Assay type: biochemical
Recorded Ki split into classes lower range (below 40 nM), middle range (40 nM to below 200 nM), upper range (200 nM or more)

Query :: Consider N#Cc1ccc(C2N=C(N)N=C(N)N2c2ccc(Cl)cc2)cc1 (stereo not drawn) . To which Ki class does it belong?
Result :: upper range

Query :: Consider CCCCOc1ccc(C2N=C(N)N=C(N)N2c2ccc(OCc3ccccc3)cc2)cc1 (stereo not drawn) . To which Ki class does it belong?
Result :: middle range

Query :: Consider NC1=NC(c2cccc(OCc3ccccc3)c2)N(c2cccc(Cc3ccccc3)c2)C(N)=N1 (stereo not drawn) . To which Ki class does it belong?
Result :: lower range

Query :: Consider CCOc1ccc(C2N=C(N)N=C(N)N2c2ccc(Cl)cc2)cc1 (stereo not drawn) . To which Ki class does it belong?
Result :: middle range

Query :: Consider NC1=NCN(c2ccc(Cl)c(Cl)c2)C(N)=N1 . To which Ki class does it belong?
Result :: lower range

Query :: Consider NC1=NCN(c2cccc(Cc3ccccc3)c2)C(N)=N1 . To which Ki class does it belong?
Result :: lower range

Query :: Consider NC1=NCN(c2ccc(Br)cc2)C(N)=N1 . To which Ki class does it belong?
Result :: middle range

Query :: Consider NC1=NC(c2ccc(F)cc2)N(c2ccc(Cl)cc2)C(N)=N1 (stereo not drawn) . To which Ki class does it belong?
Result :: upper range

Query :: Consider COc1cccc(C2N=C(N)N=C(N)N2c2cccc(Cl)c2)c1 (stereo not drawn) . To which Ki class does it belong?
Result :: upper range

---

System: P. falciparum FCR3 (resistant strain containing the A16V.S108T DHFR mutant)
Test: In vitro inhibition of P. falciparum FCR3
Assay type: cell-based, Plasmodium falciparum
Details: Plasmodium falciparum; in vitro, FCR3 strain; read-out: Pf-FCR3 ED50
Answer each item with its documented log10 IC50.
Note: values are log10 of IC50 expressed in µg/mL.

Query :: If you can, please state the reported log10 IC50 value of CCCCOc1ccc(C2N=C(N)N=C(N)N2c2ccc(Cl)cc2)cc1 (stereo not shown) .
Result :: -1.04

Query :: If you can, please state the reported log10 IC50 value of COc1ccc(Oc2cccc(C3N=C(N)N=C(N)N3c3ccc(Cl)cc3)c2)cc1 (stereo not shown) .
Result :: 0.10

Query :: If you can, please state the reported log10 IC50 value of NC1=NC(c2cccc(Oc3ccccc3)c2)N(c2ccc(Cl)cc2)C(N)=N1 (stereo not shown) .
Result :: -0.49

Query :: If you can, please state the reported log10 IC50 value of CC(C)(C)c1ccc(Oc2cccc(C3N=C(N)N=C(N)N3c3ccc(Cl)cc3)c2)cc1 (stereo not shown) .
Result :: -0.59

Query :: If you can, please state the reported log10 IC50 value of NC1=NC(c2ccc(Oc3ccccc3)cc2)N(c2cccc(Cl)c2)C(N)=N1 (stereo not shown) .
Result :: -2.40

Query :: If you can, please state the reported log10 IC50 value of NC1=NC(c2cccc(Oc3ccc(Cl)cc3)c2)N(c2cccc(Cl)c2)C(N)=N1 (stereo not shown) .
Result :: -1.11

Query :: If you can, please state the reported log10 IC50 value of NC1=NC(c2ccc(Oc3ccccc3)cc2)N(c2ccc(Cl)cc2)C(N)=N1 (stereo not shown) .
Result :: -0.70
